readout name: melting point

Some solved entries appear below for comparison.
INSERT INTO results (compound, readout_name, result) VALUES
  ('Cc1nc(N)c2c(n1)OC(C)(C)C(c1ccc([C@H]3CC[C@H](CNC(=O)C(C)(C)O)CC3)cc1)=N2', 'melting point', '228 to 229 °C'),
  ('CC1(C)Oc2ncnc(N)c2N=C1c1ccc([C@H]2CC[C@H](CN[C@H]3CC[C@H](O)CC3)CC2)cc1', 'melting point', '> 250 °C'),
  ('Nc1ncnc2c1N=C(c1ccc([N+](=O)[O-])cc1)CO2', 'melting point', '> 250 °C'),
  ('CC1(C)Oc2ncnc(N)c2N=C1c1ccc([C@H]2CC[C@H](C(=O)NC(CO)C(=O)O)CC2)cc1 (stereo partly drawn)', 'melting point', '> 250 °C'),
  ('Cc1nc(N)c2c(n1)OC(C)(C)C(c1ccc([C@H]3CC[C@H](CN4CCOC4=O)CC3)c(Cl)c1)=N2', 'melting point', '> 250 °C'),
  ('Cc1nc(N)c2c(n1)OC(C)(C)C(c1ccc([C@H]3CC[C@H](CSCC(=O)O)CC3)cc1)=N2', 'melting point', '271 to 277 °C'),
  ('CN(CCO)C(=O)CC[C@H]1CC[C@H](c2ccc(C3=Nc4c(N)ncnc4OC3(C)C)cc2)CC1', 'melting point', '168 to 170 °C'),
  ('CC(C)NC[C@H]1CC[C@H](c2ccc(C3=Nc4c(N)ncnc4OC3(C)C)cc2)CC1', 'melting point', '250 °C');

Name the recorded melting point for "CC1(C)Oc2ncnc(N)c2N=C1c1ccc(C2CCC(=O)CC2)cc1" .
> 240 °C

Could you share which melting point value was measured for CC1(C)Oc2ncnc(N)c2NC1c1ccc(F)cc1 (stereo not drawn) ?
> 230 °C

Consider the compound "Nc1ncnc2c1N=C(c1ccc(Cl)cc1Cl)CO2" and give its measured melting point.
218 to 220 °C

// query melting point value for entry "Cc1nc(N)c2c(n1)OC(C)(C)C(c1ccc([C@H]3CC[C@H](CS(=O)(=O)CC(=O)O)CC3)cc1)=N2"
225 to 227 °C

Returns the measured melting point for the input compound. Input: "CC1(C)Oc2ncnc(N)c2N=C1c1ccc([C@H]2CC[C@H](Cc3cnc(-c4ccccc4)[nH]3)CC2)cc1"
230 to 231 °C
